Catalogue of compounds with associated viability, T/C
- Tested on: MDA-MB-468 complex spheroids with HUVEC/MSC, viability
- PROTOCOL SUMMARY: Anticancer human tumor MDA-MB-468 cell line growth inhibition;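 note: spheroids exposed to agents for seven days; 100% = DMSO vehicle control viability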
- CONDITION DETAILS: second compound 1 µM; first compound 0.03 µM; hits give low values
Write it as a number; the unit % goes unstated.

Here's what some known entries look like.
Nc1ncn(C2CC(O)C(CO)S2)c(=O)n1 (centres undefined) + NC1CC1c1ccc(-c2cccc(O)c2)cc1 ... 35.4
O=C(C=Cc1cccc(S(=O)(=O)Nc2ccccc2)c1)NO + NC1CCC(NC2CC2c2ccccc2)CC1 ... 65.7
O=C(C=Cc1cccc(S(=O)(=O)Nc2ccccc2)c1)NO + NC1CC1c1ccc(-c2cccc(O)c2)cc1 ... 70.3

// next entry
Quick one: viability, T/C of CCN(c1cc(-c2ccc(CN3CCOCC3)cc2)cc(C(=O)NCc2c(C)cc(C)[nH]c2=O)c1C)C1CCOCC1 + NC1CC1c1ccc(-c2cccc(O)c2)cc1 ?
79

----------
- System: MDA-MB-468 complex spheroids with HUVEC/MSC, viability
- PROTOCOL SUMMARY: Anticancer human tumor MDA-MB-468 cell line growth inhibition;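 note: spheroids exposed to agents for seven days; 100% = DMSO vehicle control viability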
- CONDITION DETAILS: second compound 1 µM; first compound 0.3 µM; hits give low values
ENDPOINT NAME: viability, T/C (%)
Write it as a number; the unit % goes unstated.

Here's what some known entries look like.
CCc1c2c(nc3ccc(O)cc13)-c1cc3c(c(=O)n1C2)COC(=O)[C@]3(O)CC + NC1CC1c1ccc(-c2cccc(O)c2)cc1 ... 0.52
Nc1ccn(C2OC(CO)C(O)C2(F)F)c(=O)n1 (stereo not drawn) + NC1CCC(NC2CC2c2ccccc2)CC1 ... 5.55
Nc1ncn(C2CC(O)C(CO)S2)c(=O)n1 (stereo not drawn) + NC1CC1c1ccc(-c2cccc(O)c2)cc1 ... 13.9

Quick one: viability, T/C of Nc1ncn(C2CC(O)C(CO)S2)c(=O)n1 (stereo not drawn) + NC1CCC(NC2CC2c2ccccc2)CC1 ?
38.1

Quick one: viability, T/C of NS(=O)(=O)OCC1CC(n2ccc3c(NC4CCc5ccccc54)ncnc32)CC1O (stereo not drawn) + NC1CC1c1ccc(-c2cccc(O)c2)cc1 ?
4.9

Quick one: viability, T/C of O=C(C=Cc1cccc(S(=O)(=O)Nc2ccccc2)c1)NO + NC1CCC(NC2CC2c2ccccc2)CC1 ?
18.7

Quick one: viability, T/C of Nc1ccccc1NC(=O)c1ccc(CNC(=O)OCc2cccnc2)cc1 + NC1CCC(NC2CC2c2ccccc2)CC1 ?
15.9

Quick one: viability, T/C of COc1cc(C2c3cc4c(cc3C(OC3OC5COC(C)OC5C(O)C3O)C3COC(=O)C23)OCO4)cc(OC)c1O (stereo not drawn) + NC1CC1c1ccc(-c2cccc(O)c2)cc1 ?
11.3

----------
- System: MDA-MB-468 complex spheroids with HUVEC/MSC, viability
- PROTOCOL SUMMARY: Anticancer human tumor MDA-MB-468 cell line growth inhibition; active = viability on the fitted dose curve at most 10% of control; inactive = the rest;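 note: spheroids exposed to agents for seven days; 100% = DMSO vehicle control viability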
- CONDITION DETAILS: second compound 0.1 µM; first compound 0.00316 µM
- From the text: Multicellular complex tumor spheroid response to LSD1 Inhibitor Iadademstat in combination with a variety of drugs and investigational agents in selected tumor cell lines The current study was undertaken to assess response to LSD1 inhibitors in combination with standard-of-care drugs and investigational agents in solid tumor complex spheroid models as well as in the K-562 leukemia. […] Compounds. […] If the clinical Cmax for an agent had not been determined, the highest concentration tested was 10 microM. […]
Return exactly one item of class 1 = active, class 0 = inactive

Use the examples below as a reference point.
O=C(C=Cn1cnc(-c2cc(C(F)(F)F)cc(C(F)(F)F)c2)n1)NNc1cnccn1 + NC1CCC(NC2CC2c2ccccc2)CC1 ... class 0
CC(C)CC(NC(=O)C(Cc1ccccc1)NC(=O)c1cnccn1)B(O)O (stereo unspecified) + NC1CCC(NC2CC2c2ccccc2)CC1 ... class 1
Nc1ncn(C2CC(O)C(CO)O2)c(=O)n1 (stereo unspecified) + NC1CCC(NC2CC2c2ccccc2)CC1 ... class 0
O=C(C=Cn1cnc(-c2cc(C(F)(F)F)cc(C(F)(F)F)c2)n1)NNc1cnccn1 + NC1CC1c1ccc(-c2cccc(O)c2)cc1 ... class 0
CC1COCCN1c1cc(-c2ccnn2C)c2ccnc(-c3ccn[nH]3)c2n1 (stereo unspecified) + NC1CC1c1ccc(-c2cccc(O)c2)cc1 ... class 0

In this assay, the call recorded for Nc1ncn(C2CC(O)C(CO)O2)c(=O)n1 (stereo unspecified) + NC1CC1c1ccc(-c2cccc(O)c2)cc1 was what?
class 0

In this assay, the call recorded for CC(C)CC(NC(=O)CNC(=O)c1cc(Cl)ccc1Cl)B1OC(=O)CC(CC(=O)O)(C(=O)O)O1 (stereo unspecified) + NC1CCC(NC2CC2c2ccccc2)CC1 was what?
class 0

In this assay, the call recorded for CC(C)CC(NC(=O)C(Cc1ccccc1)NC(=O)c1cnccn1)B(O)O (stereo unspecified) + NC1CC1c1ccc(-c2cccc(O)c2)cc1 was what?
class 1

In this assay, the call recorded for CC1COCCN1c1cc(-c2ccnn2C)c2ccnc(-c3ccn[nH]3)c2n1 (stereo unspecified) + NC1CCC(NC2CC2c2ccccc2)CC1 was what?
class 0

From: PubChem BioAssay AID1918954
